Ref: patent US20190134005A1

# target of assay: human CGT (Homo sapiens, UniProt Q16880)
# assay summary: Assay 1: CGT Enzymatic Assay (RapidFire/MS/MS, 0.01% Tween 80)
# Type: biochemical
# condition context: Table 1, Compounds of Formula (I) and Formula (II); CGT enzymatic assay; read-out: IC50
readout label: IC50

Example results:
[
  {
    "molecule": "C[C@]1(c2cccc(Cl)c2)C(O)N(c2ccc(Cl)cc2)C(=O)N1c1ccc(Cl)cc1 (single isomer, unassigned)",
    "IC50": "1 to 10 µM"
  },
  {
    "molecule": "O=C1N(c2ccc(Br)cc2)C(=O)C(O)(c2ccc(Cl)s2)N1c1ccc(Br)cc1 (stereo not drawn)",
    "IC50": "10 to 50 µM"
  },
  {
    "molecule": "N#Cc1ccc(N2CC(O)(c3ccccc3)N(c3ccc(C#N)cc3)C2=O)cc1 (stereo not drawn)",
    "IC50": "> 50 µM"
  },
  {
    "molecule": "C[C@H]1N(c2ccc(F)cc2)C(=O)N(c2ccc(F)cc2)C1(O)c1cccc(OC(F)(F)F)c1 (stereo partly drawn)",
    "IC50": "< 1 µM"
  },
  {
    "molecule": "CN(C)C[C@@H]1N(c2ccc(Cl)cc2)C(=O)N(c2ccc(Cl)cc2)C1(O)c1cccc(OC(F)(F)F)c1 (single isomer, unassigned)",
    "IC50": "< 1 µM"
  },
  {
    "molecule": "O=C1N(c2ccc(Br)cc2)CC(O)(c2ccc(Cl)s2)N1c1ccc(Br)cc1 (stereo not drawn)",
    "IC50": "10 to 50 µM"
  },
  {
    "molecule": "CCCCCCC1(O)C(=O)N(c2ccc(Br)cc2)C(=O)N1c1ccc(Br)cc1 (stereo not drawn)",
    "IC50": "50 to 100 µM"
  },
  {
    "molecule": "O=C1N(c2ccc(Cl)cc2)C2(CCC2)C(O)(c2cccc(OC(F)F)c2)N1c1ccc(Cl)cc1 (stereo not drawn)",
    "IC50": "< 1 µM"
  }
]

// each molecule listed below needs its IC50
1. CC1(C)N(c2ccc(Cl)cc2)C(=O)N(c2ccc(Cl)cc2)C1(O)c1cccc(C(F)(F)F)c1 (stereo not drawn)
2. O=C1N(c2ccc(Br)cc2)CC(O)(c2ccc(Cl)cc2)N1c1ccc(Br)cc1 (stereo not drawn)
3. O=C1N(c2ccc(Br)cc2)C(=O)C(O)(c2ccc(OC3CCCCC3)cc2)N1c1ccc(Br)cc1 (stereo not drawn)
4. O=C1N(c2ccc(Cl)cc2)[C@@H](c2ccccc2)[C@@](O)(CO)N1c1ccc(Cl)cc1
5. O=C1N(c2ccc(Cl)cc2)C2(CC2)C(O)(c2cccc(OC(F)(F)F)c2)N1c1ccc(Cl)cc1 (stereo not drawn)

1. < 1 µM
2. 10 to 50 µM
3. > 50 µM
4. 10 to 50 µM
5. < 1 µM

Dear colleague, could you send me IC50 for each of the items below? Thanks.
1. CC(C)(C)c1cccc(C2(O)CN(c3ccc(Br)cc3)C(=O)N2c2ccc(Br)cc2)c1 (stereo not drawn)
2. O=C1N(c2ccc(Br)cc2)CC(O)(c2cccc(Cl)c2)N1c1ccc(Br)cc1 (stereo not drawn)

["10 to 50 µM", "1 to 10 µM"]

###

Give measured pIC50 for each item. Keep answers brief.
# target of assay: human CGT (Homo sapiens, UniProt Q16880)
# assay summary: Assay 1: CGT Enzymatic Assay (RapidFire/MS/MS, 0.01% Tween 80)
# Format: biochemical
# condition context: Table 1, Compounds of Formula (I) and Formula (II); CGT enzymatic assay; read-out: IC50
pIC50: −log10 of the molar value.

// below: answered compounds
[
  {
    "compound": "CCc1cccc(C2(O)[C@@H](C)N(c3ccc(Br)cc3)C(=O)N2c2ccc(Br)cc2)c1 (stereo partly shown) [Compound 68-2]",
    "readout label": "pIC50",
    "assay result": "> 6.00"
  },
  {
    "compound": "COC(=O)C1(O)[C@@H](C)N(c2ccc(Br)cc2)C(=O)N1c1ccc(Br)cc1 (single isomer, unassigned) [Compound 84-2]",
    "readout label": "pIC50",
    "assay result": "< 4.30"
  },
  {
    "compound": "O=C1N(c2ccc(F)cc2)C(=O)C(O)(c2ccccc2)N1c1ccc(F)cc1 (stereo not shown) [Example 161]",
    "readout label": "pIC50",
    "assay result": "< 4.30"
  }
]

Need pIC50 for each of these compounds.
1. CC1(C)N(c2ccc(Cl)cc2)C(=O)N(c2ccc(Cl)cc2)C1(O)c1cc(C#N)cc(C#N)c1 (stereo not shown) [Example 188]
2. CC1N(c2ccccc2)C(=O)N(c2ccccc2)C1(O)c1cccc(OC(F)(F)F)c1 (stereo not shown) [Example 230]
3. CCC[C@H]1N(c2ccc(Cl)cc2)C(=O)N(c2ccc(Cl)cc2)C1(O)c1cccc(OC(F)(F)F)c1 (stereo partly shown) [Compound 91-2]
4. C#Cc1cc(Cl)cc(C2(O)CN(c3ccc(Cl)cc3)C(=O)N2c2ccc(Cl)cc2)c1 (stereo not shown) [Compound 108]

1: > 6.00; 2: 5.00 to 6.00; 3: > 6.00; 4: 5.00 to 6.00

###

# target of assay: human CGT (Homo sapiens)
# assay summary: Assay 1: CGT Enzymatic Assay (RapidFire/MS/MS, 0.01% Tween 80)
# Type: biochemical
# condition context: Table 1, Compounds of Formula (I) and Formula (II); CGT enzymatic assay; read-out: IC50
pIC50: −log10 of the molar value.
readout label: pIC50

Batch request: pIC50 for each of the following molecules.
1. N#Cc1cccc(C2(O)N(c3ccc(Cl)cc3)C(=O)N(c3ccc(Cl)cc3)C23CCC3)c1 (stereo not shown) [Compound 72]
2. CCCCOc1ccc(C2(O)C(=O)N(c3ccc(Br)cc3)C(=O)N2c2ccc(Br)cc2)cc1 (stereo not shown) [Example 182]
3. CC[C@@H]1N(c2ccc(Br)cc2)C(=O)N(c2ccc(Br)cc2)C1(O)c1cccc(C)c1 (stereo partly shown) [Compound 76-1]
4. COc1cccc([C@@]2(C)C(O)N(c3ccc(Br)cc3)C(=O)N2c2ccc(Br)cc2)c1 (single isomer, unassigned) [Compound 126-1]

1: > 6.00; 2: < 4.30; 3: > 6.00; 4: < 4.30

###

I'd appreciate it if you could supply IC50 values for the items below.
# target of assay: human CGT (Homo sapiens, UniProt Q16880)
# Sequence (Q16880 21-541): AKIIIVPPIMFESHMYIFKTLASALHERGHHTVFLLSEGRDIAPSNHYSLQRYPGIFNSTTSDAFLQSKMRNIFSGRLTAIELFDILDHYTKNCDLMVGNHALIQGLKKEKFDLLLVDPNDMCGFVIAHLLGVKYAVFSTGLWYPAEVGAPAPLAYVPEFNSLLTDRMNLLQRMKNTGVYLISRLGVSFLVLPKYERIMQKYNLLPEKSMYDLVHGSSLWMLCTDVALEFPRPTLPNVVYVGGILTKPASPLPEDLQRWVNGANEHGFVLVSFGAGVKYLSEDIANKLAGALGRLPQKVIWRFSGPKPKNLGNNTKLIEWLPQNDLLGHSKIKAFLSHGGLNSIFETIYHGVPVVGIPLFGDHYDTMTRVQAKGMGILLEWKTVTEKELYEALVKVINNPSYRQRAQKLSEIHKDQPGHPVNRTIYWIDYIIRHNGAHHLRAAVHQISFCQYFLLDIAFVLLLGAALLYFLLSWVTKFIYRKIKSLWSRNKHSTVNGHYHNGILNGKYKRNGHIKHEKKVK
# assay summary: Assay 1: CGT Enzymatic Assay (RapidFire/MS/MS, 0.01% Tween 80)
# Format: biochemical
# condition context: Table 1, Compounds of Formula (I) and Formula (II); CGT enzymatic assay; read-out: IC50

Example results:
[
  {
    "compound": "COc1ccccc1C1(O)C(=O)N(c2ccc(Br)cc2)C(=O)N1c1ccc(Br)cc1 (stereo not drawn) [Example 206]",
    "IC50": "> 50000 nM"
  },
  {
    "compound": "O=C1N(c2ccc(Cl)cc2)C2(CC2)C(O)(c2cccc(O)c2)N1c1ccc(Cl)cc1 (stereo not drawn) [Example 227]",
    "IC50": "1000 to 10000 nM"
  },
  {
    "compound": "O=C1N(c2ccc(Cl)cc2)C(c2cccs2)C(O)(c2ccccc2)N1c1ccc(Cl)cc1 (stereo not drawn) [Compound 109]",
    "IC50": "1000 to 10000 nM"
  },
  {
    "compound": "Cc1cccc(C2(O)[C@@H](C)N(c3ccc(Cl)cc3)C(=O)N2c2ccc(Cl)cc2)c1 (stereo partly drawn) [Example 36-2]",
    "IC50": "1000 to 10000 nM"
  },
  {
    "compound": "O=C1N(c2ccc(Br)cc2)[C@@H](C2CC2)C(O)(c2ccccc2)N1c1ccc(Br)cc1 (stereo partly drawn) [Compound 115-1]",
    "IC50": "< 1000 nM"
  },
  {
    "compound": "CCc1c(-c2cccc(C#N)c2)n(-c2ccc(F)cc2)c(=O)n1-c1ccc(F)cc1 [Compound 252]",
    "IC50": "1000 to 10000 nM"
  },
  {
    "compound": "C[C@@H]1N(c2ccc(Br)cc2)C(=O)N(c2ccc(Br)cc2)C1(O)c1cccc(C(F)(F)F)c1 (stereo partly drawn) [Compound 74-1]",
    "IC50": "< 1000 nM"
  },
  {
    "compound": "C[C@@]1(c2ccccc2)C(O)N(c2ccc(Cl)cc2)C(=O)N1c1ccc(Cl)cc1 (single isomer, unassigned) [Example 223-2]",
    "IC50": "< 1000 nM"
  },
  {
    "compound": "CCCc1c(C(=O)c2ccccc2)n(-c2ccc(Cl)cc2)c(=O)n1-c1ccc(Cl)cc1 [Example 27]",
    "IC50": "10000 to 50000 nM"
  },
  {
    "compound": "Cc1cc(C#N)cc(C2(O)CN(c3ccc(Cl)cc3)C(=O)N2c2ccc(Cl)cc2)c1 (stereo not drawn) [Compound 102]",
    "IC50": "1000 to 10000 nM"
  }
]

Please state, for each entry, its recorded IC50.
1. Cc1c(-c2cccc(C#N)c2)n(-c2ccc(Cl)cc2)c(=O)n1-c1ccc(Cl)cc1 [Example 3]
2. COC[C@@H]1N(c2ccc(Cl)cc2)C(=O)N(c2ccc(Cl)cc2)C1(O)c1cccc(C(F)(F)F)c1 (stereo partly drawn) [Compound 92-1]
3. CCC[C@H]1N(c2ccc(Br)cc2)C(=O)N(c2ccc(Br)cc2)C1(O)c1cccc(Cl)c1 (stereo partly drawn) [Compound 119-2]

1: < 1000 nM; 2: < 1000 nM; 3: < 1000 nM

Batch request: IC50 per item, same order as input.
1. O=C1N(c2ccc(Cl)cc2)CC(O)(c2cc(Cl)cc(Cl)c2)N1c1ccc(Cl)cc1 (stereo not drawn) [Compound 85]
2. C[C@H]1N(c2ccc(Br)cc2)C(=O)N(c2ccc(Br)cc2)C1(O)c1cccs1 (stereo partly drawn) [Example 49-2]
3. O=C1N(c2ccc(Cl)cc2)[C@@H](C2CCC2)C(O)(c2cccc(OC(F)(F)F)c2)N1c1ccc(Cl)cc1 (stereo partly drawn) [Example 191-1]
4. C[C@H]1N(c2ccc(Cl)cc2)C(=O)N(c2ccc(Cl)cc2)C1(O)c1cccc(Cl)c1 (single isomer, unassigned) [Compound 62-2]
5. CCc1c(-c2ccccc2)n(-c2ccc(Br)cc2)c(=O)n1-c1ccc(Br)cc1 [Compound 264]
6. CC[C@H]1N(c2ccc(Cl)cc2)C(=O)N(c2ccc(Cl)cc2)C1(O)c1cccc(Cl)c1 (stereo partly drawn) [Compound 81-2]
7. O=c1n(-c2ccc(Cl)cc2)c(-c2cccc(Cl)c2)c(C2CCCO2)n1-c1ccc(Cl)cc1 (stereo not drawn) [Compound 254]
8. CC(C)C1(c2cccc(C#N)c2)C(O)N(c2ccc(Cl)cc2)C(=O)N1c1ccc(Cl)cc1 (stereo not drawn) [Example 231]

["1000 to 10000 nM", "1000 to 10000 nM", "< 1000 nM", "< 1000 nM", "< 1000 nM", "< 1000 nM", "1000 to 10000 nM", "1000 to 10000 nM"]

Please supply IC50 for each of the following items, keeping them in order.
1. CC1(C)N(c2ccc(Cl)cc2)C(=O)N(c2ccc(Cl)cc2)C1(O)c1cncc(C#N)c1 (stereo not drawn) [Example 186]
2. O=C1N(c2ccc(Br)cc2)CC(O)(c2cccc(OC(F)(F)F)c2)N1c1ccc(Br)cc1 (stereo not drawn) [Compound 58]
3. O=C1N(c2ccc(Br)cc2)C(=O)C(O)(c2cccc3ccccc23)N1c1ccc(Br)cc1 (stereo not drawn) [Example 195]
4. COC[C@@H]1N(c2ccc(Cl)cc2)C(=O)N(c2ccc(Cl)cc2)C1(O)c1cccc(OC(F)F)c1 (stereo partly drawn) [Compound 238-1]
5. CCOc1cccc(C2(O)CN(c3ccc(Br)cc3)C(=O)N2c2ccc(Br)cc2)c1 (stereo not drawn) [Compound 79]

1: < 1000 nM; 2: < 1000 nM; 3: > 50000 nM; 4: < 1000 nM; 5: 1000 to 10000 nM

Quick one: give me IC50 for each item below, same order please.
1. CC(C)c1ccc(N2C(=O)N(c3ccc(C(C)C)cc3)C(O)(c3ccccc3)C2=O)cc1 (stereo not drawn) [Compound 145]
2. Cc1c(-c2cccc(Br)c2)n(-c2ccc(Cl)cc2)c(=O)n1-c1ccc(Cl)cc1 [Compound 246]
3. CC1(C)N(c2ccc(Br)cc2)C(=O)N(c2ccc(Br)cc2)C1(O)c1ccccc1 (stereo not drawn) [Compound 120]
4. O=c1n(-c2ccc(Cl)cc2)c(-c2cccc(OC(F)(F)F)c2)c(C2CC2)n1-c1ccc(Cl)cc1 [Compound 65]

["50000 to 100000 nM", "< 1000 nM", "< 1000 nM", "< 1000 nM"]
